procedure-summary: chemical genetic growth profiling, strain panel (AID 1159580);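 note: tested at 20 µM; growth read once vehicle control cultures reached saturation at 30 °C; 1 = growth at the plate median or of vehicle wells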
conditions-used: S. cerevisiae strains, growth OD, strain wild type, stronger effect = lower value
Hit rate of the full screen: of about 5,500 compounds, about 2,000 (36%) were called active. Inconclusive results (about 18%) are left out. Some of the results follow.

{"molecule": "CCSC(SCC)[C@H](O)[C@@H](O)[C@H](O)CO", "normalized growth": 0.992}
{"molecule": "O=c1[nH]c2ccccc2n1C1CCN(CCCC(c2ccc(F)cc2)c2ccc(F)cc2)CC1", "normalized growth": 0.993}
{"molecule": "NC(=S)Nc1cc(Cl)ccc1Cl", "normalized growth": 0.99}
{"molecule": "CCC(=O)O[C@H]1CCC2C3CCc4cc(O)ccc4C3CC[C@@]21C (stereo partly specified)", "normalized growth": 0.884}
{"molecule": "O=c1cc(-c2ccc(O)cc2)oc2cc(O[C@@H]3O[C@H](CO)[C@@H](O)[C@H](O)[C@H]3O[C@@H]3OC[C@](O)(CO)[C@H]3O)cc(O)c12", "normalized growth": 1.01}
{"molecule": "CCOc1ccc(Cc2nccc3cc(OCC)c(OCC)cc23)cc1OCC", "normalized growth": 0.961}

====

procedure-summary: chemical genetic growth profiling, strain panel (AID 1159580)
conditions-used: S. cerevisiae deletion strains, growth OD, locus YJL128C, strain PBS2, stronger effect = lower value
About 2,000 (36%) of roughly 5,500 compounds were called active. Roughly 18% stayed inconclusive and do not appear here. Some of the results follow.
// reported normalized growth per item

{"compound": "CN(NC(=S)Nc1cc(Cl)ccc1Cl)c1ccc(C(F)(F)F)cc1[N+](=O)[O-]", "normalized growth": "0.929 (inactive)"}
{"compound": "COc1ccc(-c2cc(NS(=O)(=O)c3cccc(F)c3)n(-c3ccc(Cl)c(Cl)c3)n2)cc1", "normalized growth": "0.921 (inactive)"}
{"compound": "O=C(c1ccc(Cl)cc1)N1CCN(c2ccc(C(F)(F)F)cn2)CC1", "normalized growth": "0.942 (inactive)"}
{"compound": "CN(C)c1nc(=S)ss1", "normalized growth": "0.876 (inactive)"}
{"compound": "O=C(NNc1c(Cl)cccc1Cl)c1ccc([N+](=O)[O-])o1", "normalized growth": "0.899 (inactive)"}
{"compound": "Nc1ccc(N2CCN(c3ccc(C(F)(F)F)cn3)CC2)nc1", "normalized growth": "1.02 (inactive)"}
{"compound": "Cc1c(C(=O)NCCNc2ccc(C(F)(F)F)cc2[N+](=O)[O-])cnn1-c1ccc(F)cc1", "normalized growth": "0.946 (inactive)"}
{"compound": "CCC1(c2ccccc2)OC(c2cc(Cl)cc(Cl)c2O)Nc2ccccc21 (stereo not given)", "normalized growth": "0.93 (inactive)"}
{"compound": "Cc1c(NCN2C(=O)CCC2=O)cc2c(c1[N+](=O)[O-])C(C)(C)CC2(C)C", "normalized growth": "0.901 (inactive)"}
{"compound": "CC1CCc2c(sc3ncnc(Sc4ccccc4)c23)C1 (stereo not given)", "normalized growth": "0.94 (inactive)"}

====

procedure-summary: chemical genetic growth profiling, strain panel (AID 1159580)
conditions-used: S. cerevisiae deletion strains, growth OD, locus YPR106W, strain ISR1
The campaign covered roughly 5,500 compounds. About 2,000 (36%) were called active. About 18% were inconclusive and are not listed. No stated cut-off is given here; in the data, active means normalized growth mostly below about 0.91 (no sharp cut-off); inconclusive means no clear call, values can overlap the other calls; inactive means mostly above about 0.92. The list shows a part of the results.
Classes used: active, inactive

{"compound": "O=C(Nc1ccc(OC(F)(F)F)cc1)Nc1cncc(C(F)(F)F)c1", "category": "inactive"}
{"compound": "Cc1nc([N+](=O)[O-])cn1CC(=O)c1ccc(Cl)cc1", "category": "inactive"}
{"compound": "O=C1CSC(=Nc2cc(Cl)cc(Cl)c2)N1Cc1cccnc1", "category": "inactive"}
{"compound": "N#C/C(=N/Nc1ccc(C(F)(F)F)cc1)C(=O)C1CC1", "category": "inactive"}
{"compound": "O=S(=O)(Nc1cc(-c2cccs2)nn1-c1ccc(I)cc1)c1cccc(F)c1", "category": "inactive"}
{"compound": "CC(/C=C/c1ccccc1)=N/OC(=O)c1ccccc1Cl", "category": "inactive"}
{"compound": "Oc1ccc(-n2nnnc2SCc2ccc(OC(F)(F)F)cc2)cc1", "category": "inactive"}
{"compound": "C(=NC(N=Cc1ccccc1)c1ccccc1)c1ccccc1 (stereo unspecified)", "category": "inactive"}
{"compound": "COC(=O)c1ccc(Oc2c(C(F)(F)F)oc3cc(O)ccc3c2=O)cc1", "category": "inactive"}
{"compound": "CCCCc1ccc(N=CNO)c(C)c1", "category": "inactive"}
{"compound": "N#C/C(=N/Nc1ccc(Cl)cc1)C(=O)C1CC1", "category": "inactive"}
{"compound": "CN(NC(=S)Nc1cc(Cl)ccc1Cl)c1ccc(C(F)(F)F)cc1[N+](=O)[O-]", "category": "inactive"}
{"compound": "Cc1oc(-c2ccc(Cl)cc2)cc1C(=O)N1CCN(c2ccc(C(F)(F)F)cn2)CC1", "category": "inactive"}
{"compound": "Cc1nn(Cc2cccc(C(=O)O/N=C(/N)c3ccc(Cl)cc3)c2)c(C)c1Br", "category": "inactive"}
{"compound": "COc1ccc(/C(C#N)=C2C=C/C(=N/O)C(Cl)=C\\2)cc1", "category": "inactive"}
{"compound": "O=C(O)c1cccc2cccc(C(=O)O)c12", "category": "active"}
{"compound": "Fc1ccc(Nc2nc(-c3ccc(F)c(F)c3)cs2)c(F)c1", "category": "active"}
{"compound": "O=C(c1ccc(Cl)cc1)N1CCN(c2ccc(C(F)(F)F)cn2)CC1", "category": "inactive"}
{"compound": "CC(C)(C)c1cc(C(=O)/C(C#N)=N\\Nc2ccc(Cl)cc2)no1", "category": "active"}
{"compound": "Cc1ccc(C(=O)Nc2ccc3ccccc3n2)cc1", "category": "inactive"}
{"compound": "COc1cc(OC)cc(/C(N)=N\\O)c1", "category": "inactive"}

====

procedure-summary: chemical genetic growth profiling, strain panel (AID 1159580);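 note: tested at 20 µM; growth read once vehicle control cultures reached saturation at 30 °C; 1 = growth at the plate median or of vehicle wells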
conditions-used: S. cerevisiae deletion strains, growth OD, locus YLR371W, strain rom2, stronger effect = lower value
Among all 5,500 compounds or so, about 2,000 (36%) were called active. Not shown: some 18% with an inconclusive outcome. The list shows a part of the results.

{"compound": "CC(C)=CCOc1cc2oc(=O)ccc2cc1O", "normalized growth": 0.934}
{"compound": "O=C(O)c1cc2cc(Cl)ccc2[nH]1", "normalized growth": 0.98}
{"compound": "COc1cc2ccc(=O)oc2c2ccoc12", "normalized growth": 0.947}
{"compound": "CC1=C2CCC3C(CC[C@]4(C)C(=O)CCC34)[C@@]2(C)CCC1=O (some centres not stated)", "normalized growth": 0.983}
{"compound": "O=c1ccc2cc(O[C@@H]3O[C@H](CO)[C@@H](O)[C@H](O)[C@H]3O)c(O)cc2o1", "normalized growth": 0.993}
{"compound": "COc1cc2ccc(=O)oc2c(O)c1O", "normalized growth": 0.981}
{"compound": "C[C@H]1C(=O)O[C@@H]2CCN3CC=C(COC(=O)[C@](C)(O)[C@]1(C)O)[C@H]23", "normalized growth": 0.984}

====

procedure-summary: chemical genetic growth profiling, strain panel (AID 1159580);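 note: tested at 20 µM; growth read once vehicle control cultures reached saturation at 30 °C; 1 = growth at the plate median or of vehicle wells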
conditions-used: S. cerevisiae deletion strains, growth OD, locus YLR268W, strain sec22, stronger effect = lower value
In all, about 5,500 compounds went through this assay and about 2,000 (36%) were called active. About 18% were inconclusive and are not listed. Some of the results follow.
Threshold check on normalized growth: strictly below 1 is class 1; on or above 1 is class 0.

{"input-smiles": "OCCN1CCN(CCCN2c3ccccc3Sc3ccc(Cl)cc32)CC1", "category": "class 1"}
{"input-smiles": "COc1ccc2[nH]cc(CCNC(C)=O)c2c1", "category": "class 0"}
{"input-smiles": "COc1c2occc2cc2ccc(=O)oc12", "category": "class 1"}
{"input-smiles": "CC1(C)S[C@@H]2[C@H](NC(=O)COc3ccccc3)C(=O)N2[C@H]1C(=O)O", "category": "class 0"}
{"input-smiles": "COc1cc2ccc(=O)oc2c2ccoc12", "category": "class 1"}
{"input-smiles": "COC(=O)C1=CO[C@@H](O[C@@H]2O[C@H](CO)[C@@H](O)[C@H](O)[C@H]2O)[C@@H]2[C@@H](C)[C@@H](O)C[C@H]12", "category": "class 1"}
{"input-smiles": "CN1CCN(CCCN2c3ccccc3Sc3ccc(Cl)cc32)CC1", "category": "class 1"}

====

procedure-summary: chemical genetic growth profiling, strain panel (AID 1159580);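 note: tested at 20 µM; growth read once vehicle control cultures reached saturation at 30 °C; 1 = growth at the plate median or of vehicle wells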
conditions-used: S. cerevisiae deletion strains, growth OD, locus YNL248C, strain rpa49, stronger effect = lower value
Hit rate of the full screen: of about 5,500 compounds, about 2,000 (36%) were called active. About 18% were inconclusive and are not listed. The list shows a part of the results.

{"compound": "C[C@]12C=CC(=O)C=C1CCC1C2CC[C@]2(C)C(=O)CCC12 (stereo partly drawn)", "normalized growth": 0.991}
{"compound": "N#Cc1ccc2c(c1)N(CCCN1CCC(O)CC1)c1ccccc1S2", "normalized growth": 0.997}
{"compound": "CC1=C(C(=O)O)N2C(=O)[C@@H](NC(=O)[C@H](N)C3=CCC=CC3)C2SC1 (stereo partly drawn)", "normalized growth": 1.05}
